Origin of values: patent US20090227616A1

System: BT474 (human breast carcinoma)
Experiment: Methylene Blue Growth Inhibition Assay
Assay type: cell-based
Details: BT-474, 72 h, BT474, 3 days
Please provide measured IC50 for the entries that follow.
Numbers only, in µM.

As a guide, the following entries are already answered.
CCn1c(-c2nonc2N)nc2c(C#CC(C)(C)O)ncc(OCC[C@H](C)N)c21 [Example 9]    0.504
CCn1c(-c2nonc2N)nc2c(C#CC(C)(C)O)ncc(OCCCN3CCCCC3)c21 [Example 1]    0.496

// each compound listed below needs its IC50
1. CCn1c(-c2nonc2N)nc2c(C#CC(C)(C)O)ncc(OCC3(CN)CC3)c21 [Example 15]
2. CCCCC(CN)COc1cnc(C#CC(C)(C)O)c2nc(-c3nonc3N)n(CC)c12 (stereo not shown) [Example 13]
3. CCn1c(-c2nonc2N)nc2c(C#CC(C)(C)O)ncc(OCC(CN)CC(C)C)c21 (stereo not shown) [Example 12]
4. CCn1c(-c2nonc2N)nc2c(C#CC(C)(C)O)ncc(OCC[C@@H](N)C(C)C)c21 [Example 4]
5. CCCC(CCN)Oc1cnc(C#CC(C)(C)O)c2nc(-c3nonc3N)n(CC)c12 (stereo not shown) [Example 16]
6. CCn1c(-c2nonc2N)nc2c(C#CC(C)(C)O)ncc(OC[C@@H](C)CNC3CC3)c21 [Example 6]
7. CCn1c(-c2nonc2N)nc2c(C#CC(C)(C)O)ncc(OCCCNC3CCCC3)c21 [Example 3]

Reply:
[0.093, 0.088, 0.556, 0.171, 0.192, 0.593, 0.295]

Ask: Quick one: IC50 of CCn1c(-c2nonc2N)nc2c(C#CC(C)(C)O)ncc(OC(CCN)C3CCCCC3)c21 (stereo not shown) [Example 18] ?
Reply: 0.051
